Cited source: patent US20070213346A1

target: UniProt P25103; experiment: Signal transduction (ST), intracellular Ca++ FLIPR, NK1; assay type: cell-based; conditions: antagonist, Ca++ transient peak, read-out: NK1 pIC50 (converted)
Mark rule met for IC50 under 80 nM, rule not met if at or over.

Problem: In plain terms, does Cc1cc(C(=O)N2CCC(N3CCN(C[C@H]4CCN(C(=O)c5cc(C(F)(F)F)cc(C(F)(F)F)c5)[C@H](Cc5ccccc5)C4)CC3)CC2)no1 [Compound 36] come in under 80 nM for IC50?
Solution: rule met

Problem: In plain terms, does Cc1cc(C)cc(C(=O)N2CCC(N3CCN(CC4CCN(C(=O)c5cc(C(F)(F)F)cc(C(F)(F)F)c5)C(Cc5ccccc5)C4)CC3)CC2)c1 (centres unmarked) [Compound 12] come in under 80 nM for IC50?
Solution: rule not met

Problem: In plain terms, does O=C(c1ccoc1)N1CCC(N2CCN(C(=O)[C@H]3CCN(C(=O)c4cc(C(F)(F)F)cc(C(F)(F)F)c4)[C@H](Cc4ccccc4)C3)CC2)C1 (some centres unmarked) [Compound 70] come in under 80 nM for IC50?
Solution: rule met

* * *

Here the recorded IC50 is given for each entry.
target: NK1 (Homo sapiens); assay: Signal transduction (ST), intracellular Ca++ FLIPR, NK1; assay type: cell-based; conditions: antagonist, Ca++ transient peak, read-out: NK1 pIC50 (converted)
Sequence (P25103 whole entry): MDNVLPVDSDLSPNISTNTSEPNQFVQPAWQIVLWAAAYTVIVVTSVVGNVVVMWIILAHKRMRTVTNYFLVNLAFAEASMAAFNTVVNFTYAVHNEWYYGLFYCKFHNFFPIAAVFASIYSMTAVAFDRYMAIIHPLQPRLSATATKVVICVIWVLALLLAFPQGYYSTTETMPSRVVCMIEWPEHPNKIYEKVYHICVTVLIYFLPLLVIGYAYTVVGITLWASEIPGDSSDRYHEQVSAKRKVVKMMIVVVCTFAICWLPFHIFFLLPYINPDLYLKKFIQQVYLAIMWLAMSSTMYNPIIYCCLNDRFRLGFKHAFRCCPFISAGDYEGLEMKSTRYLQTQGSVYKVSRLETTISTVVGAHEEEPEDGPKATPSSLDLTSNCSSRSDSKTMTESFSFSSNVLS
Write the answer as a number in nM, unit excluded.

MOLECULE	IC50 (nM)
COc1cccc(CC(=O)N2CCC(N3CCN(CC4CCN(C(=O)c5cc(C(F)(F)F)cc(C(F)(F)F)c5)C(Cc5ccccc5)C4)CC3)CC2)c1 (centres unmarked) [Compound 52]	316

Problem: Return the recorded IC50 value; entry: O=C(CC1CCN(C(=O)c2cc(C(F)(F)F)cc(C(F)(F)F)c2)[C@@H](Cc2ccccc2)C1)N1CCN(C2CCN(C(=O)C3CCOC3)C2)CC1 (mixture of isomers) [Compound 73]
Solution: 41.7

Problem: Return the recorded IC50 value; entry: O=C(C1CCN(C(=O)c2cc(C(F)(F)F)cc(C(F)(F)F)c2)C(Cc2ccccc2)C1)N1CCN(C2CCN(S(=O)(=O)c3cccs3)C2)CC1 (centres unmarked) [Compound 13]
Solution: 13.2

Problem: Return the recorded IC50 value; entry: O=C(CC1CCN(C(=O)c2cc(C(F)(F)F)cc(C(F)(F)F)c2)C(Cc2ccccc2)C1)N1CCN(C2CCNC2)CC1 (centres unmarked) [Compound 8]
Solution: 302

Problem: Return the recorded IC50 value; entry: Cn1cccc1C(=O)N1CCC(N2CCN(CC3CCN(C(=O)c4cc(C(F)(F)F)cc(C(F)(F)F)c4)C(Cc4ccccc4)C3)CC2)CC1 (centres unmarked) [Compound 33]
Solution: 224

Problem: Return the recorded IC50 value; entry: O=C(C1CC1)N1CCC(N2CCN(CC3(O)CCN(C(=O)c4cc(C(F)(F)F)cc(C(F)(F)F)c4)C(Cc4ccccc4)C3)CC2)C1 (centres unmarked) [Compound 77]
Solution: 42.7

Problem: Return the recorded IC50 value; entry: O=C(c1cccnc1)N1CCC(N2CCN(C[C@H]3CCN(C(=O)c4cc(C(F)(F)F)cc(C(F)(F)F)c4)[C@H](Cc4ccccc4)C3)CC2)CC1 [Compound 48]
Solution: 25.7

Problem: Return the recorded IC50 value; entry: COC1(CN2CCN(C3CCN(C(=O)c4cccnc4)C3)CC2)CCN(C(=O)c2cc(C(F)(F)F)cc(C(F)(F)F)c2)C(Cc2ccccc2)C1 (centres unmarked) [Compound 88]
Solution: 61.7
